- TARGET_OF_ASSAY: Cdk2(S181C) (C177A) (Homo sapiens, UniProt P24941, C177A/S181C)
- Construct: poly-histidine; made in house; host or cells: E. coli
- EXPERIMENT: Kinetic thiol consumption assay with Cdk2 mutant S181C
- Format: binding
- TEST_CONTEXT: Protein: Cdk2; cysteine position S181C; additional mutation C177A; in h^-1
MEASURED_QUANTITY: Rate constant with Cdk2 S181C

C=CC(=O)N1CCCC1c1cnc2ccccc2c1 (stereo not drawn) : 0.01756
C=CC(=O)N1CCC(c2nc3ccccc3[nH]2)CC1 : 0.005678
C=CC(=O)N1CCC2CCC(C1)N2C (stereo not drawn) : 0.02691

A = C=CC(=O)N(Cc1ccc2c(c1)CCO2)C1CCCC1
B = C=CC(=O)N1CC(n2cccn2)C1
C = C=CC(=O)NCCc1c[nH]c2ccccc12
Put the entries in order of Rate constant with Cdk2 S181C, starting with the largest number. // ordering of labels required in reply
A, B, C
(A: 0.3106, B: 0.02111, C: 0.002125)

Source of measurements: patent US11415579B2
